Molecular target: human TYK2 (JH2domain-pseudokinase) (Homo sapiens (Human), UniProt P29597)
Sequence (P29597 556-888): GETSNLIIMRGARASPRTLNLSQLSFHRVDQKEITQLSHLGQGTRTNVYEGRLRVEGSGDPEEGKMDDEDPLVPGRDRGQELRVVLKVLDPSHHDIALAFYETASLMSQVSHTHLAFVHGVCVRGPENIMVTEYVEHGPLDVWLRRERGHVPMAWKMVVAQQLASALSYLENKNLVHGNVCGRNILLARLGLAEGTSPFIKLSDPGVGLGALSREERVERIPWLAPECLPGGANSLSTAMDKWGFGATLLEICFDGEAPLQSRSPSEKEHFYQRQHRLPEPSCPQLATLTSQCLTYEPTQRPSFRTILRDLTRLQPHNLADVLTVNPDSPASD
Test: TYK2 JH2 Domain Binding Assay (KINOMEscan, DiscoveRx)
Settings: 11-point dilution, duplicate
pKd: −log10 of the molar value.
readout: pKd

• Cc1nc2c(Nc3ccc(-c4nn(C)cc4C)cc3S(C)(=O)=O)cc(NC(=O)C3CC3(C)C)nc2[nH]1 (stereo not drawn) [I-363] = 8.00 to 9.00
• COc1c(Nc2cc(Nc3cnc(C)c(C#N)n3)nc3[nH]c(C(F)F)nc23)cccc1-c1nnn(C)n1 [I-38] = 8.00 to 9.00
• COc1c(Nc2cc(Nc3cccc(C#N)n3)nc3[nH]c(C(F)F)nc23)cccc1-c1ccn(C)n1 [I-25] = 9.30 to 10.00

Each recorded value in this set is attributed to patent US10647713B2.
